Biological target: Activated human plasma kallikrein (Enzyme Research Laboratories, HPKa 1303) (human, UniProt P03952 20-638)
Sequence (P03952 20-638 limits assumed): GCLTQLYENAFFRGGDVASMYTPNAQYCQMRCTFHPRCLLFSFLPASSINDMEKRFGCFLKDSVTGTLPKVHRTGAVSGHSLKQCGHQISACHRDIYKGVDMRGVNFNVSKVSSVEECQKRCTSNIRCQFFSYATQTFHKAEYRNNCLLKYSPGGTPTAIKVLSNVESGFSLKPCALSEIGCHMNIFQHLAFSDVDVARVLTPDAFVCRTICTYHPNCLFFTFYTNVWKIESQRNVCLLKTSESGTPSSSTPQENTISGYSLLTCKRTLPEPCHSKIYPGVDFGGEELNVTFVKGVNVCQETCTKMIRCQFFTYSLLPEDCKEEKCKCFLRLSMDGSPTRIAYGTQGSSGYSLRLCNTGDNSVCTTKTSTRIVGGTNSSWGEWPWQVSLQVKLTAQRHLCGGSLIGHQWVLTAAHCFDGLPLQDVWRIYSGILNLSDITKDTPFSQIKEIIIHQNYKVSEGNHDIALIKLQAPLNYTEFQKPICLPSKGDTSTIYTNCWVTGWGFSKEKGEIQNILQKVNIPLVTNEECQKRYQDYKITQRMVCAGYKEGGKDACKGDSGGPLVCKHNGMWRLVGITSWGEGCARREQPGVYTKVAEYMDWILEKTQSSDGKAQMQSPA
Assay: cell-based or functional assay
Bridge positions count the residues as written; N and C are the ends. Square brackets hold non-standard residues; d marks the D form. Ends that are not written are not given here. mXylyl = xylyl linker from dibromoxylene joining the two cysteines; Phg = N[C@H](C(=O)O)c1ccccc1; Tle = CC(C)(C)[C@H](N)C(=O)O
Measured Human Kallikrein IC50, listed per entry for reference.
Number only, in nM; omit the unit.

Here is how some binders turned out for Human Kallikrein IC50.
1) Ac-CAS[Phg]CR[Tle]-NH2 (linker 1-5 via mXylyl) [R2036]
6.4
2) Ac-CESICRV-NH2 (linker 1-5 via mXylyl) [R2023]
19

Now look at this entry.
Query: Which value of Human Kallikrein IC50 has been reported for MCESICRV-NH2 (linker 2-6 via mXylyl) [R2006] in the records?
Reply: 25
